The measured values listed here are drawn from patent US20230391786A1.

Target: recombinant human cGAS (Homo sapiens (Human), UniProt Q8N884)
Sequence (Q8N884 whole entry): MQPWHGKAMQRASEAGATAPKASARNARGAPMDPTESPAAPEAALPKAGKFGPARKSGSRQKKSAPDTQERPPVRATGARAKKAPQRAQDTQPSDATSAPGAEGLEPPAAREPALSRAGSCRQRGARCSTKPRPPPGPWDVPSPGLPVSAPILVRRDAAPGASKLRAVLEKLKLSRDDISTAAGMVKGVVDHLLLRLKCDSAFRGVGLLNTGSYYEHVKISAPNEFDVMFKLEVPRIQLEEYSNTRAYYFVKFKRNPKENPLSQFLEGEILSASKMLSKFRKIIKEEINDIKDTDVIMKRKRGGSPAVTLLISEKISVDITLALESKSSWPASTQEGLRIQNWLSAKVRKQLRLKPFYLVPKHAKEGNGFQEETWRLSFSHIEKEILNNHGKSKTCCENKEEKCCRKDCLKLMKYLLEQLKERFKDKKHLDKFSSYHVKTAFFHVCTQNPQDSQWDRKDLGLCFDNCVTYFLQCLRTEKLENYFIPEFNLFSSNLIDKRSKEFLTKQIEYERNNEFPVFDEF
Experiment: In vitro inhibition assay of cGAS activity (cGAMP production, RapidFire mass spectrometry)
Type: biochemical
Conditions: 10 nM recombinant human cGAS, 60 nM 75-bp dsDNA, ATP, GTP, room temperature 3 hours, read-out: IC50 (μM), In vitro inhibition assay for Compounds 95-348
readout label: log10 of IC50 (log10 of the value in µM)
Give log10 of IC50, with IC50 taken in µM.

Please review the entries below; each comes with its answer.
> print(dat)
                                   molecule  experimental.result
1  CN1C(=O)CCC1CC(=O)N1CCn2c(c(-c3cn[nH]c3)c3ccc(Cl)c(Cl)c32)C1 (centres unmarked) [Example 324]                -1.20
2  OCCCOc1cc(Cl)c(Cl)c2c1c(-c1cn[nH]c1)c1n2CC(O)CC1 (centres unmarked) [Example 348]                -2.16
3  OCCc1cc(-n2cc(-c3cn[nH]c3)c3ccc(Cl)c(Cl)c32)on1 [Example 211]                -1.47
4  O=C(Nc1cc(Cl)c(Cl)c2[nH]cc(-c3cn[nH]c3)c12)C(F)(F)CO [Example 169]                -1.86

Give log10 of IC50 for each of the items listed below.
1. O=C(CO)NC1CCn2c1c(-c1cn[nH]c1)c1ccc(Cl)c(Cl)c12 (single isomer, unassigned) [Example 345]
2. COCCOCC(=O)N1CCn2c(c(-c3cn[nH]c3)c3ccc(Cl)c(Cl)c32)C1 [Example 306]
3. OCC(O)CNc1cc(Cl)c(Cl)c2[nH]cc(-c3cn[nH]c3)c12 (single isomer, unassigned) [Example 262]
4. O=C(NCc1[nH]c2c(Cl)c(Cl)ccc2c1-c1cn[nH]c1)C1COC1 [Example 224]

[-1.20, -1.42, -1.11, -1.15]

* * *

Consider the following molecules; for each one, report its IC50.
System: cGAS activity in THP1 cells (IFNb as marker)
Test: Cellular assay to measure cGAS activity (IFNb production in PMA-differentiated THP1 cells stimulated by RDG-Adenovirus-GFP)
Type: cell-based, human
Conditions: Homo sapiens, THP-1, THP1 cells, PMA differentiated, RDG-Adenovirus-GFP 1000 MOI, IFNb AlphaLISA, overnight incubation; read-out: IC50 (μM), Cellular assay for Compounds 95-348
Give bare numbers, in µM.

> print(dat)
                                   molecule  experimental.result
1  N#CCOc1cc(Cl)c(Cl)c2c1c(-c1cn[nH]c1)c1n2CCN(C(=O)C2COCCO2)C1 (centres unmarked)                 0.56

Working through the 8 molecules below one at a time, give IC50 for each.
1. CC(=O)N[C@H]1CCn2c1c(-c1cn[nH]c1)c1c(OCC#N)cc(Cl)c(Cl)c12
2. O=C(CO)NC1Cc2c(-c3cn[nH]c3)c3ccc(Cl)c(Cl)c3n2C1 (centres unmarked)
3. Cc1nnc(N2CCn3c(c(-c4cn[nH]c4)c4c(OCC#N)cc(Cl)c(Cl)c43)C2)s1
4. OCCn1cc(-n2cc(-c3cn[nH]c3)c3ccc(Cl)cc32)nn1
5. N#CCOc1cc(Cl)c(Cl)c2c1c(-c1cn[nH]c1)c1n2CCN(C(=O)CCn2cncn2)C1
6. FCCOc1cc(Cl)c(Cl)c2[nH]cc(-c3cn[nH]c3)c12
7. CC(=O)NCc1[nH]c2c(Cl)c(Cl)cc(OCC#N)c2c1-c1cn[nH]c1
8. OCCCNc1cc(Cl)c(F)c2c1c(-c1cn[nH]c1)cn2-c1cn(CCO)nn1

[0.668, 2.41, 0.374, 2.1, 4.08, 0.875, 0.807, 0.466]

Dear colleague, could you send me IC50 for each of the items below? Thanks.
1. O=C(Nc1cc(Cl)c(Cl)c2[nH]c(CCO)c(-c3cn[nH]c3)c12)C(F)F
2. OCCCNc1cc(Cl)cc2c1c(-c1cn[nH]c1)cn2-c1cn(CCO)nn1

[0.23, 0.292]

* * *

Biological target: recombinant human cGAS (Homo sapiens (Human), UniProt Q8N884)
Assay: In vitro inhibition assay of cGAS activity (cGAMP production, RapidFire mass spectrometry)
Type: biochemical
Conditions: 10 nM recombinant human cGAS, 60 nM 75-bp dsDNA, ATP, GTP, room temperature 3 hours, read-out: IC50 (μM), In vitro inhibition assay for Compounds 95-348
I'd appreciate it if you could supply IC50 values for the items below.
Numbers only, in µM.

Known results for molecules:
> print(dat)
                                   molecule  experimental.result
1  N#CCOc1cc(Cl)c(Cl)c2c1c(-c1cn[nH]c1)c1n2CCN(C(=O)C2COCCO2)C1 (stereo not shown)               0.0242
2  CN(C)C(=O)CCC(=O)N1CCn2c(c(-c3cn[nH]c3)c3c(OCC#N)cc(Cl)c(Cl)c32)C1                0.018
3  COCC(=O)N1CCn2c(c(-c3cn[nH]c3)c3c(OCC#N)cc(Cl)c(Cl)c32)C1               0.0072

As a next step, examine the molecule that follows.
Could you share which IC50 value was measured for O=C(NCc1[nH]c2c(Cl)c(Cl)ccc2c1-c1cn[nH]c1)c1nnco1 ? 0.0894

* * *

Biological target: recombinant human cGAS (Homo sapiens (Human))
Assay: In vitro inhibition assay of cGAS activity (cGAMP production, RapidFire mass spectrometry)
Type: biochemical
Details: 10 nM recombinant human cGAS, 60 nM 75-bp dsDNA, ATP, GTP, room temperature 3 hours, read-out: IC50 (μM), In vitro inhibition assay for Compounds 1-94
Simple rule here: IC50 less than 0.03 µM is criterion met, otherwise criterion not met.

For orientation, consider the following solved cases.
> print(dat)
                                   compound        class.label
1  O=C1CCc2c(-c3cn[nH]c3)c3ccc(Cl)c(Cl)c3n21 [Example 68]  criterion not met
2  N#CCOc1cc(Cl)c(Cl)c2c1c(-c1cn[nH]c1)c1n2CCN(C(=O)CO)C1 [Example 89]      criterion met
3  CN1CCn2c(c(-c3cn[nH]c3)c3ccc(Cl)c(Cl)c32)C1=O [Example 83]  criterion not met
4  O=C(O)C1CCn2c(c(-c3cn[nH]c3)c3ccc(Cl)c(Cl)c32)C1 (single isomer, unassigned) [Example 14]  criterion not met

Turning now to a further compound:
For Clc1c(Br)ccc2c(-c3cn[nH]c3)c[nH]c12 [Example 30] , is the recorded IC50 below the cut-off of 0.03 µM? criterion not met

* * *

So I've got a bunch of molecules here, and I need their IC50 values.
Tested on: cGAS activity in THP1 cells (IFNb as marker)
Assay: Cellular assay to measure cGAS activity (IFNb production in PMA-differentiated THP1 cells stimulated by RDG-Adenovirus-GFP)
Type: cell-based, human
Conditions: Homo sapiens, THP-1, THP1 cells, PMA differentiated, RDG-Adenovirus-GFP 1000 MOI, IFNb AlphaLISA, overnight incubation; read-out: IC50 (μM), Cellular assay for Compounds 95-348

The cases that follow already have their IC50 on record.
> print(dat)
                                   molecule  readout.label  experimental.result
1  CS(=O)(=O)NC1Cc2c(-c3cn[nH]c3)c3ccc(Cl)c(Cl)c3n2C1 (stereo not shown) [Example 246]           IC50              9.23 µM
2  CC(=O)Nc1cc(Cl)c(Cl)c2[nH]c(CNC(=O)CO)c(-c3cn[nH]c3)c12 [Example 222]           IC50              > 10 µM
3  Clc1ccc2c(-c3cn[nH]c3)c(-c3nnc(C4CC4)o3)[nH]c2c1Cl [Example 160]           IC50             0.536 µM

Consider the additional molecule presented here.
Form field - read-out: IC50; system: cGAS activity in THP1 cells (IFNb as marker); submitted item: O=C1NCC(C(=O)N2CCn3c(c(-c4cn[nH]c4)c4ccc(Cl)c(Cl)c43)C2)O1 (stereo not shown) [Example 180] 1.85 µM

* * *

Tested on: cGAS activity in THP1 cells (IFNb as marker)
Test: Cellular assay to measure cGAS activity (IFNb production in PMA-differentiated THP1 cells stimulated by RDG-Adenovirus-GFP)
Type: cell-based, human
Conditions: Homo sapiens, THP-1, THP1 cells, PMA differentiated, RDG-Adenovirus-GFP 1000 MOI, IFNb AlphaLISA, overnight incubation; read-out: IC50 (μM), Cellular assay for Compounds 95-348
Method: Cellular assay to measure cGAS activity: Use THP1 cell line from ATCC to determine inhibition of cGAS activity by test compounds in human cells. Plate cells on 96-well plates at 0.2×10^6/well and differentiate with phorbol myristate acetate (PMA) at 37° C./5% CO2. […] Measure quantification of IFNb with an IFNb AlphaLISA Detection kit (Perkin Elmer AL3133F) by mixing the acceptor beads with the cell supernatant followed by the addition of the biotinylated antibody and donor beads. […]
Entries whose IC50 is below 3 µM take T; entries at or above 3 µM take F.

> print(dat)
                                   compound                           subject.of.test  class.label
1  CC(=O)N1CCOC(CC(=O)N2CCn3c(c(-c4cn[nH]c4)c4ccc(Cl)c(Cl)c43)C2)C1 (single isomer, unassigned)  cGAS activity in THP1 cells (IFNb as marker)            F

Dear reviewer, please state whether OCCCOc1cc(Cl)c(Cl)c2[nH]cc(-c3cn[nH]c3)c12 has IC50 strictly beneath 3 µM. T
